- Tested on: Escherichia coli
- TEST NAME: Antibacterial activity against Escherichia coli ATCC 25922 assessed as reduction in bacterial cell growth incubated for 16 to 24 hrs by CLSI-protocol based Mueller-Hinton Broth micro-dilution method
- Type: functional
- PROTOCOL CONDITIONS: time 16-24 hrs
Peptide text beside a SMILES is read from it. * marks the point of attachment. Lauroyl = CCCCCCCCCCCC(=O)*; Decanoyl = CCCCCCCCCC(=O)*; Octanoyl = CCCCCCCC(=O)*; Hexanoyl = CCCCCC(=O)*; Butyryl = CCCC(=O)*
# MIC listing for each entry below
Report the value in µM with no unit label.

INSERT INTO assay_data (compound, metric_name, uom, recorded_result) VALUES
  ('CCCCCCCCCC(=O)NCC(=O)N[C@@H](CC(C)C)C(=O)N[C@@H](CC(C)C)C(=O)N[C@@H](CCCCN)C(=O)N[C@@H](CCCNC(=N)N)C(=O)N[C@H](C(=O)N[C@@H](CCCCN)C(=O)N[C@H](C(=O)N[C@@H](CC(C)C)C(=O)N[C@@H](CC(C)C)C(N)=O)[C@@H](C)O)[C@@H](C)CC (Decanoyl-GLLKRIKTLL-NH2)', 'MIC', 'µM', 16),
  ('CCCCCCCCCCCC(=O)NCC(=O)N[C@@H](CC(C)C)C(=O)N[C@@H](CC(C)C)C(=O)N[C@@H](CCCCN)C(=O)N[C@@H](CCCNC(=N)N)C(=O)N[C@H](C(=O)N[C@@H](CCCCN)C(=O)N[C@H](C(=O)N[C@@H](CC(C)C)C(=O)N[C@@H](CC(C)C)C(N)=O)[C@@H](C)O)[C@@H](C)CC (Lauroyl-GLLKRIKTLL-NH2)', 'MIC', 'µM', 64),
  ('CCCCCC(=O)NCC(=O)N[C@@H](CC(C)C)C(=O)N[C@@H](CC(C)C)C(=O)N[C@@H](CCCCN)C(=O)N[C@@H](CCCNC(=N)N)C(=O)N[C@H](C(=O)N[C@@H](CCCCN)C(=O)N[C@H](C(=O)N[C@@H](CC(C)C)C(=O)N[C@@H](CC(C)C)C(N)=O)[C@@H](C)O)[C@@H](C)CC (Hexanoyl-GLLKRIKTLL-NH2)', 'MIC', 'µM', 128),
  ('CCCCCCCC(=O)NCC(=O)N[C@@H](CC(C)C)C(=O)N[C@@H](CC(C)C)C(=O)N[C@@H](CCCCN)C(=O)N[C@@H](CCCNC(=N)N)C(=O)N[C@H](C(=O)N[C@@H](CCCCN)C(=O)N[C@H](C(=O)N[C@@H](CC(C)C)C(=O)N[C@@H](CC(C)C)C(N)=O)[C@@H](C)O)[C@@H](C)CC (Octanoyl-GLLKRIKTLL-NH2)', 'MIC', 'µM', 16);

Value wanted: MIC (Escherichia coli) of entry CCCC(=O)NCC(=O)N[C@@H](CC(C)C)C(=O)N[C@@H](CC(C)C)C(=O)N[C@@H](CCCCN)C(=O)N[C@@H](CCCNC(=N)N)C(=O)N[C@H](C(=O)N[C@@H](CCCCN)C(=O)N[C@H](C(=O)N[C@@H](CC(C)C)C(=O)N[C@@H](CC(C)C)C(N)=O)[C@@H](C)O)[C@@H](C)CC (Butyryl-GLLKRIKTLL-NH2)
256

Attribution: ChEMBL document CHEMBL5608163
